ASSAY INFO: A qHTS for Small Molecule Inhibitors of Shiga Toxin; also: 0% is about no effect
RECORDED CONDITIONS: Vero cells, Shiga toxin protein synthesis inhibition reporter; at 38.7 µM, active compounds read high
In all, about 290,000 compounds went through this assay and about 27,000 (9.3%) were called active. The list comes from a sample in which actives are over-represented; it also holds close analogues and randomly drawn compounds.
Below, each of the molecules is paired with its reported inhibition value.
A number alone suffices; assume %.

Answered examples (8):
Prompt line: Value lookup for inhibition; key = "CC(C)[C@@H](C(=O)O)N(Cc1cccc(CN([C@H](C(=O)O)C(C)C)S(C)(=O)=O)c1)S(C)(=O)=O"
Response line: -4.11

Prompt line: Value lookup for inhibition; key = "O=C(O)c1ccc(N=NN2CCOCC2)cc1"
Response line: 38.4

Prompt line: Value lookup for inhibition; key = "O=C(Cn1cnc2c(cnn2-c2ccc(F)cc2)c1=O)NCCc1ccccc1"
Response line: -0.429

Prompt line: Value lookup for inhibition; key = "Cn1c(SCC(=O)N2CCCCC2)nc2c(c1=O)SCC2"
Response line: -17.3

Prompt line: Value lookup for inhibition; key = "NC(=NC(=O)c1ccccc1)N1CCOCC1"
Response line: -9.05

Prompt line: Value lookup for inhibition; key = CSc1cccc(NC(=O)C2CCCN2S(=O)(=O)c2ccc3c(c2)CCC(=O)N3)c1 (configuration not stated)
Response line: 25.9

Prompt line: Value lookup for inhibition; key = O=C(CSc1nnc(-c2ccco2)n1CC1CCCO1)c1ccccc1 (configuration not stated)
Response line: 21.9

Prompt line: Value lookup for inhibition; key = "COc1ccccc1NC(=O)c1ccc(C)s1"
Response line: 73.7

Continuing:
Prompt line: Value lookup for inhibition; key = "Cc1ccc(-c2csc(NC(=O)Cn3[nH]c(=O)c4ccccc4c3=O)n2)cc1"
Response line: 42.6
